# tested_target: bombesin receptor (Mus musculus, UniProt P21729)
# Sequence (P21729 whole entry): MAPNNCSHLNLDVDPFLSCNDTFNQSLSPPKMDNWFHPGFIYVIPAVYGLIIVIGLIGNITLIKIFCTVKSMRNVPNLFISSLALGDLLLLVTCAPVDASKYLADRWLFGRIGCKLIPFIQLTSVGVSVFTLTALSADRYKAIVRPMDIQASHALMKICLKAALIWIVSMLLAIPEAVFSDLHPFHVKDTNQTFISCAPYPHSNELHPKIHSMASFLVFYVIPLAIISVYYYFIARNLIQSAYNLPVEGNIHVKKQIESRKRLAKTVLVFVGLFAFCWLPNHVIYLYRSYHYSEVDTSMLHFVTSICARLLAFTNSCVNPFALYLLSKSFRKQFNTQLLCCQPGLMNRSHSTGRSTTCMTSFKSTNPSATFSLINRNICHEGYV
pKd: −log10 of the molar value. Non-standard residues stand in square brackets, D forms with d. Residues, ends and D or L forms follow the SMILES beside them. *: point of attachment. Lauroyl = CCCCCCCCCCCC(=O)*; Octanoyl = CCCCCCCC(=O)*
reported_metric: pKd

Check out these entries, answers already filled in.
compound	pKd
CC(=O)N[C@@H](CCC(N)=O)C(=O)N[C@@H](Cc1c[nH]c2ccccc12)C(=O)N[C@@H](C)C(=O)N[C@H](C(=O)N[C@H](C)C(=O)N[C@@H](Cc1c[nH]cn1)C(N)=O)C(C)C [Nα-AcetylQ W A V a H #] (Ac-QWAV[dA]H-NH2)	5.82
CC(=O)N[C@@H](CCC(N)=O)C(=O)N[C@@H](Cc1c[nH]c2ccccc12)C(=O)N[C@@H](C)C(=O)N[C@H](C(=O)N[C@H](C)C(=O)N[C@@H](Cc1c[nH]cn1)C(=O)N[C@@H](CC(C)C)C(N)=O)C(C)C [Nα-AcetylQ W A V a H L #] (Ac-QWAV[dA]HL-NH2)	7.16

I = CCCCCCCCCCCC(=O)N[C@@H](CCC(N)=O)C(=O)N[C@@H](Cc1c[nH]c2ccccc12)C(=O)N[C@@H](C)C(=O)N[C@H](C(=O)N[C@H](C)C(=O)N[C@@H](Cc1c[nH]cn1)C(=O)N[C@@H](CC(C)C)C(N)=O)C(C)C [Example 2] (Lauroyl-QWAV[dA]HL-NH2)
II = CCCCCCCC(=O)N[C@@H](CCC(N)=O)C(=O)N[C@@H](Cc1c[nH]c2ccccc12)C(=O)N[C@@H](C)C(=O)N[C@H](C(=O)N[C@H](C)C(=O)N[C@@H](Cc1c[nH]cn1)C(N)=O)C(C)C [Example 4] (Octanoyl-QWAV[dA]H-NH2)
Could you point out whether the larger pKd belongs to I or to II ? Indicate which entry you chose by stating its label.
II
(II: 7.24, I: 6.49)
